- Assay system: HLA-A*23:01
- Test summary: IEDB peptide-MHC binding, purified MHC/competitive/radioactivity; filed as Kd, often an IC50 or EC50 that approximates it; bounds were set here for any values at or beyond the usual limits of such assays
- Conditions: source organism: Mammarenavirus guanaritoense
Property label: Kd

State its Kd: INYCLDFLF 56.5 nM

* * *

- Assay system: HLA-B*57:01
- Test summary: IEDB peptide-MHC binding, purified MHC/direct/fluorescence; filed as Kd, often an IC50 or EC50 that approximates it; bounds were set here for any values at or beyond the usual limits of such assays
- Conditions: source organism: Mammarenavirus machupoense
Property label: Kd

Give a short answer stating reported Kd for LITEQFLCY . ≥ 20 µM

* * *

- Assay system: HLA-B*18:01
- Test summary: IEDB peptide-MHC binding, purified MHC/direct/fluorescence; filed as Kd, often an IC50 or EC50 that approximates it; bounds were set here for any values at or beyond the usual limits of such assays
- Conditions: source organism: Influenza A virus (A/equine/New York/1/1999(H3N8))
pKd: −log10 of the molar value.
Property label: pKd

Given the sequence ELVRKTRFL , write its reported pKd. ≤ 4.70

* * *

- Assay system: HLA-B*45:06
- Test summary: IEDB peptide-MHC binding, purified MHC/competitive/fluorescence; filed as Kd, often an IC50 or EC50 that approximates it; bounds were set here for any values at or beyond the usual limits of such assays
- Conditions: source organism: Francisella tularensis subsp. tularensis FSC198
Property label: Kd

Please supply the value of reported Kd for the item YTDKIAMSY ≥ 5 µM

* * *

- Assay system: HLA-A*02:17
- Test summary: IEDB peptide-MHC binding, purified MHC/competitive/radioactivity; filed as Kd, often an IC50 or EC50 that approximates it; bounds were set here for any values at or beyond the usual limits of such assays
- Conditions: source organism: Dengue virus 4 Philippines/H241/1956
Property label: pKd
The meaning of pKd here: minus log10 of the concentration in molar units.

Look up HLA-A*02:17 data: pKd of LLAGFMAYMI , then report it. 7.34

* * *

- Assay system: HLA-A*33:01
- Test summary: IEDB peptide-MHC binding, purified MHC/competitive/radioactivity; filed as Kd, often an IC50 or EC50 that approximates it; bounds were set here for any values at or beyond the usual limits of such assays
- Conditions: source organism: Vaccinia virus Copenhagen
Property label: Kd (µM)
State the answer as a number, implicitly in µM.

Given RVIWMDAYK , respond with its Kd. 4.82

* * *

Recorded pKd, one value per entry.
- Assay system: HLA-A*69:01
- Test summary: IEDB peptide-MHC binding, purified MHC/competitive/fluorescence; filed as Kd, often an IC50 or EC50 that approximates it; bounds were set here for any values at or beyond the usual limits of such assays
- Conditions: source organism: Orthohantavirus andesense
pKd: −log10 of the molar value.

{"columns": ["Sequence data", "Result"],
 "data": [
  ["LEEDIQHFL", "≤ 4.70"]
]}

For the next question, use this sequence.
Answer with the recorded pKd of KPKALSEAF only. ≤ 4.70

* * *

- Assay system: HLA-B*15:01
- Test summary: IEDB peptide-MHC binding, purified MHC/competitive/fluorescence; bounds were set here for any values at or beyond the usual limits of such assays
- Conditions: source organism: Zaire ebolavirus
Reported pIC50 values for the following sequences.
Note on units: pIC50 is unitless, being -log10 of a concentration expressed in mol/L.

{"columns": ["Sequence data", "Measured number"],
 "data": [
  ["RTIHHASAP", 4.44],
  ["SLPKTSGHY", 5.40],
  ["FVTLDGQQF", 4.21]
]}

Consider the record given below.
Note pIC50 for the sequence shown: LLQRWGGTC 4.38
